// values below are reported log10(GI50)
Tested on: OVCAR-5
measurement notes: Cytotoxicity against human OVCAR5 cells after 48 hrs by trypan blue dye exclusion assay
Type: functional
details: OVCAR-5, 48 h
Please keep in mind that the values are log10 of GI50 expressed in nM.

The examples below pair each entry with its known result.
compound	recorded result
COc1ccc2c(c1)OC1=C(C(=O)OC1)C2c1cc(OC)c2c(c1)OCO2 (configuration not stated)	2.18
COc1ccc2c(c1)C(c1cc(OC)c3c(c1)OCO3)C1=C(COC1=O)N2 (configuration not stated)	2.80
COc1ccc2c(c1)OC1=C(C(=O)OC1)C2c1cc(OC)c(OC)c(OC)c1 (configuration not stated)	3.67
COc1cc(OC)cc(C2C3=C(COC3=O)Nc3cc(OC)ccc32)c1 (configuration not stated)	1.61
COc1ccc2c(c1)OC1=C(C(=O)OC1)C2c1cc(OC)c2c(c1)OCCO2 (configuration not stated)	2.10

Exercise: Returns the measured log10(GI50) for the input compound. Input: COc1ccc2c(c1)NC1=C(C(=O)OC1)C2c1cc(OC)c2c(c1)OCO2 (configuration not stated)
Key: 1.91

Exercise: Same read-out for "COc1cc([C@H]2C3=C(COC3=O)Nc3cc4c(cc32)OCO4)cc2c1OCO2" ?
Key: 3.04

###

Tested on: M14
measurement notes: Cytotoxicity against human M14 cells after 48 hrs by trypan blue dye exclusion assay
Assay type: functional
details: M14, 48 h
measurement label: GI50 (nM)
Your answer should be a plain number; it is taken to be in nM.

compound	value unit	recorded result
COc1ccc2c(c1)NC1=C(C(=O)OC1)C2c1cc(OC)c2c(c1)OCO2 (stereo not drawn)	nM	13.2
COc1ccc2c(c1)OC1=C(C(=O)OC1)C2c1cc(OC)c2c(c1)OCO2 (stereo not drawn)	nM	23.3
COc1ccc2c(c1)OC1=C(C(=O)OC1)C2c1cc(OC)c2c(c1)OCCO2 (stereo not drawn)	nM	52.2
COc1cc([C@@H]2c3cc4c(cc3[C@H](O)[C@H]3COC(=O)[C@H]23)OCO4)cc(OC)c1OC	nM	13.1
COc1ccc2c(c1)OC1=C(C(=O)OC1)C2c1cc(OC)c(OC)c(OC)c1 (stereo not drawn)	nM	505
COc1cc([C@H]2C3=C(COC3=O)Nc3cc4c(cc32)OCO4)cc2c1OCO2	nM	228

Exercise: Name the recorded GI50 for COc1ccc2c(c1)C(c1cc(OC)c3c(c1)OCO3)C1=C(COC1=O)N2 (stereo not drawn) .
Key: 247

###

Examples of molecules with documented GI50 follow.
System: TK-10
measurement notes: Cytotoxicity against human TK10 cells after 48 hrs by trypan blue dye exclusion assay
Type: functional
details: TK-10, 48 h

molecule	measurement label	recorded result
COc1cc(OC)cc(C2C3=C(COC3=O)Nc3cc(OC)ccc32)c1 (stereo not given)	GI50	39.7 µM

Exercise: // fetch TK-10 GI50 for COc1ccc2c(c1)OC1=C(C(=O)OC1)C2c1cc(OC)c2c(c1)OCO2 (stereo not given)
Key: 0.268 µM

Exercise: Entry COc1ccc2c(c1)C(c1cc(OC)c3c(c1)OCO3)C1=C(COC1=O)N2 (stereo not given) please
Key: > 100 µM

Exercise: Another molecule: COc1ccc2c(c1)OC1=C(C(=O)OC1)C2c1cc(OC)c2c(c1)OCCO2 (stereo not given)
Key: 36.5 µM

Exercise: Moving on to COc1ccc2c(c1)NC1=C(C(=O)OC1)C2c1cc(OC)c2c(c1)OCO2 (stereo not given)
Key: 0.0607 µM
